From: patent US20230017532A1

# System: Acinetobacter baumannii ATCC17978
# ASSAY_PROCEDURE: Antimicrobial susceptibility testing: 90% growth inhibitory concentration (IC90) determination, Iso-Sensitest broth, OD 600 nm
# Assay type: cell-based
# CONDITION_CONTEXT: Acinetobacter baumannii, ATCC17978, 16 h, 90% growth inhibitory concentration, Acinetobacter baumannii ATCC17978, Iso-Sensitest broth, OD 600 nm over 16 h; read-out: ATCC 17978 IC90
Counter-ions that a name gives are not always drawn.
ENDPOINT_NAME: IC90 (µM)
Answers are plain numbers, in µM.

Illustrative cases are given below, each with its answer.
Cc1cc(Nc2nccn3c(-c4ccc(OC(F)F)cc4)cnc23)ccc1C(=O)NCCOCCOCCO [Example 149] :: 1.3
Cc1cc(Nc2nccn3c(-c4ccc(OC(F)F)cc4)cnc23)ccc1C(=O)NCCOCCN1CCC2(CCOCC2)C1 [Example 91] :: 0.65
Cc1cc(Nc2nccn3c(-c4ccc(Cl)cc4)cnc23)ccc1C(=O)NCCNCCN [Example 117, hydrochloride] :: 0.59
Cc1cc(Nc2nccn3c(-c4ccc(OC(F)F)cc4)cnc23)ccc1C(=O)NCCOCCNC(=O)CN(CCO)CCO [Example 146] :: 1.2

For each of the compounds below, note its IC90.
1. Cc1cc(Nc2nccn3c(-c4ccc(OCC#CCN)cc4)cnc23)ccc1C(=O)NCCOCCN [Example 123]
2. CCNCCCN(CC)C(=O)c1ccc(Nc2nccn3c(-c4ccc(OC)c(F)c4)cnc23)cc1C [Example 128]

Response given:
0.63
3.4

====

# System: Acinetobacter baumannii ATCC17978
# ASSAY_PROCEDURE: Antimicrobial susceptibility testing: 90% growth inhibitory concentration (IC90) determination, Iso-Sensitest broth, OD 600 nm
# Format: cell-based
# CONDITION_CONTEXT: Acinetobacter baumannii, ATCC17978, 16 h, 90% growth inhibitory concentration, Acinetobacter baumannii ATCC17978, Iso-Sensitest broth, OD 600 nm over 16 h; read-out: ATCC 17978 IC90
# Description: Antimicrobial Susceptibility Testing: 90% Growth Inhibitory Concentration (IC90) Determination The in vitro antimicrobial activity of the compounds was determined according to the following procedure: The assay used a 10-points Iso-Sensitest broth medium to measure quantitatively the in vitro activity of the compounds against Acinetobacter baumannii ATCC17978 and Acinetobacter baumannii ATCC17961. […]
ENDPOINT_NAME: IC90

Illustrative cases are given below, each with its answer.
COc1ccc(-c2cnc3c(Nc4ccc(C(=O)NCCOCCN)c(CCF)c4)nccn23)c(F)c1F [Example 74] :: 46 nM
COc1ccc(-c2cnc3c(Nc4ccc(C(=O)N(C)CCN(C)CCO)c(C)c4)nccn23)cc1F [Example 144] :: 1900 nM

Consider Cc1cc(Nc2nccn3c(-c4ccc(OC(F)F)cc4)cnc23)ccc1C(=O)NCCOCCS(C)(=O)=O [Example 132] . Its measured IC90 is 780 nM
